Recorded values, source PubChem BioAssay (NCI).

system: RXF 393 renal; experiment: NCI-60 one-dose screen, 48 h (100 = growth as untreated, 0 = no growth, -100 = all killed); details: 10 µM unless noted
The panel holds about 83,000 compounds, 20% with a hit somewhere; the sample as a whole holds those more often.
PROPERTY_MEASURED: growth (%)
Express your answer in %, writing the number without its unit.

Entry c1ccc(OCc2nnc(-c3ccc(Oc4ccccc4)cc3)o2)cc1 ; growth = 106

Entry O=C(Cc1ccc(F)c(Cl)c1)Nc1cc(C2(C(F)(F)F)CC2)nn1Cc1ccccc1 ; growth = -23.5

Entry COc1ccc(C2CC(c3ccc(Nc4nc(Nc5ccc(F)cc5)nc(Nc5ccc(Cl)cc5)n4)cc3)=NN2C(C)=O)cc1 (stereo not given) ; growth = 86.6

Entry CNC(=O)c1cc(-n2ccc3cc(NC(=O)c4ccc(N5CCOCC5)c(C(F)(F)F)c4)ccc32)ccn1 ; growth = -2.7

Entry Cc1nc2cnc(N)c(C#Cc3cncc(C(=O)Nc4ccc(CN5CCN(C)CC5)c(C(F)(F)F)c4)c3)c2nc1C ; growth = -68.3

Entry COc1ccc(C(=O)N=Nc2c(O)n(C)c3ccccc23)cc1 ; growth = 100

Entry COc1cc(OCc2cccc(-c3ccc(C(O)c4nccs4)cc3)c2C)cc(OC)c1CNCCNC(C)=O (stereo not given) ; growth = 107

Entry N#Cc1ccc(NC(=O)c2sc3nc4c(cc3c2N)C(=O)CCC4)cc1 ; growth = 119

Entry c1ccc(Nc2cc(-c3cccnc3)[nH]n2)cc1 ; growth = 107

Entry O=c1c2cc(F)ccc2sc2c(NCCO)nc3ccccc3c12 ; growth = 109

====

Exercise: state measured growth for each of the compounds provided.
System: UACC-257 melanoma
Assay: NCI-60 one-dose screen, 48 h (100 = growth as untreated, 0 = no growth, -100 = all killed)
Conditions: 10 µM unless noted
Experimental: Cells are grown in 96 well plates and exposed to the test compound for 48 hours. Compounds are tested at a single concentration, which is 10^-5 M for most compounds. The reported endpoint is percent growth (GI% or GIPRCNT), where numbers from 0 - 100% represent growth inhibition, and numbers from -100% - 0 represent cell death. For example, a value of 40 represents 60% growth inhibition. A value of 0 means no net growth occurred over the course of the experiment. […]
This is part of a sample that, as a whole, favours compounds with a hit. Of some 83,000 tested, about 20% had one in any assay. Calls of active or inactive are those of the source. How the source made its calls: active means growth percent below 10; inactive means the rest.

Entry COc1cccc(-c2nc(-c3ccc(NS(=O)(=O)c4ccccc4)cc3)[nH]c2-c2ccnc(Br)c2)c1 ; growth = 48.7% (inactive)

Entry C=C1CC[C@@]2(C#N)[C@H]3[C@H](CC[C@@H]2C)[C@@H](C)C[C@@H](CC(C)(C)C#N)[C@H]13 ; growth = 71.9% (inactive)

Entry CCCCCCNC(=O)Oc1ccc(/C(=C(\C)c2ccc(Cl)cc2)c2ccc(OCCN(CC)CC)cc2)cc1 ; growth = 6.29% (active)

Entry NC[C@@H]1O[C@H](O[C@@H]2[C@@H](CO)OC(O[C@@H]3[C@@H](O)[C@H](N)C[C@H](N)[C@H]3OC3O[C@H](CN)[C@@H](O)[C@H](O)[C@H]3N)[C@@H]2O)[C@H](N)[C@@H](O)[C@@H]1O (stereo partly drawn) ; growth = 106% (inactive)

Entry Cc1nn(-c2ccccc2)c(-n2ccnc2)c1/C=N/Nc1nc(-c2ccc(F)cc2)cs1 ; growth = 75.6% (inactive)

Entry Cc1c(C(=O)NCCCc2ccccc2)sc2ncc(-c3ccc(Br)cc3)n12 ; growth = 109% (inactive)

Entry CCOC(=O)c1[nH]c(C)c(C(=O)OCc2ccccc2C#N)c1C ; growth = 114% (inactive)

Entry Cc1cc2[nH]c(=O)c3c4ncccc4cn3c2cc1C ; growth = 108% (inactive)
